test system: barnyardgrass (Echinochloa crus-galli); experiment: Test A preemergence, barnyardgrass; assay type: in vivo; conditions: Preemergence, 31 g ai/ha; visual injury, 0 to 100 scale (0 no effect, 100 complete control), approx. 10 days
Would you kindly list Plant response rating, Barnyardgrass for each of these compounds?

Query: State the recorded Plant response rating, Barnyardgrass for this entry: CCOC1CCCN(C(=O)c2cc(NS(=O)(=O)C(F)(F)F)c(C)cc2C)C1 (stereo not shown)
Result: 0

Query: Another: Cc1cc(C)c(N(COC(=O)c2ccccc2)S(=O)(=O)C(F)(F)F)cc1C1=NOC2(CCCC2)C1
Result: 0

Query: Another: COC1CCCN(C(=O)c2cc(NS(=O)(=O)C(F)(F)F)c(C)cc2C)CC1 (stereo not shown)
Result: 20

Query: Another: Cc1cc(C)c(C(=O)N2CCCC(F)C2)cc1NS(=O)(=O)C(F)(F)F (stereo not shown)
Result: 50
